# credit: ChEMBL document CHEMBL2331225

Target: Telomerase reverse transcriptase (Homo sapiens)
Assay: Inhibition of TERT transcriptional activity in human H1299 cells assessed SEAP activity at 1 uM incubated for 24 hrs by SEAP assay
Type: cell-based
Design: scale not given: the % may be the effect or the level left
observedProperty: Activity (%)
The reply should be a number in %, with the unit left off.

Input: Endpoint output: Activity of O=C1c2ccccc2C(=O)c2c1ccc1nc(CN(Cc3ccccn3)Cc3ccccn3)[nH]c21 . Value?
Output: 86

Input: Endpoint output: Activity of N#Cc1ccccc1N1CCN(Cc2nc3ccc4c(c3[nH]2)C(=O)c2ccccc2C4=O)CC1 . Value?
Output: 106

Input: Endpoint output: Activity of COc1cccc(N2CCN(Cc3nc4ccc5c(c4[nH]3)C(=O)c3ccccc3C5=O)CC2)c1 . Value?
Output: 105

Input: Endpoint output: Activity of O=C1c2ccccc2C(=O)c2c1ccc1nc(CN3CCN(c4ccccc4)CC3)[nH]c21 . Value?
Output: 92

Input: Endpoint output: Activity of O=C1c2ccccc2C(=O)c2c1ccc1nc(CN3CCC(CCCC4CCNCC4)CC3)[nH]c21 . Value?
Output: 96

Input: Endpoint output: Activity of CC(C)N(C)Cc1nc2ccc3c(c2[nH]1)C(=O)c1ccccc1C3=O . Value?
Output: 77

Input: Endpoint output: Activity of CN1CCN(Cc2nc3ccc4c(c3[nH]2)C(=O)c2ccccc2C4=O)CC1 . Value?
Output: 106

Further cases:
Input: Endpoint output: Activity of O=C1c2ccccc2C(=O)c2c1ccc1nc(CCN3CCN(c4ccccn4)CC3)[nH]c21 . Value?
Output: 88

----------
Quick reference for Activity among some compounds
Target: Telomerase reverse transcriptase (Homo sapiens, UniProt O14746)
Sequence (O14746 whole entry): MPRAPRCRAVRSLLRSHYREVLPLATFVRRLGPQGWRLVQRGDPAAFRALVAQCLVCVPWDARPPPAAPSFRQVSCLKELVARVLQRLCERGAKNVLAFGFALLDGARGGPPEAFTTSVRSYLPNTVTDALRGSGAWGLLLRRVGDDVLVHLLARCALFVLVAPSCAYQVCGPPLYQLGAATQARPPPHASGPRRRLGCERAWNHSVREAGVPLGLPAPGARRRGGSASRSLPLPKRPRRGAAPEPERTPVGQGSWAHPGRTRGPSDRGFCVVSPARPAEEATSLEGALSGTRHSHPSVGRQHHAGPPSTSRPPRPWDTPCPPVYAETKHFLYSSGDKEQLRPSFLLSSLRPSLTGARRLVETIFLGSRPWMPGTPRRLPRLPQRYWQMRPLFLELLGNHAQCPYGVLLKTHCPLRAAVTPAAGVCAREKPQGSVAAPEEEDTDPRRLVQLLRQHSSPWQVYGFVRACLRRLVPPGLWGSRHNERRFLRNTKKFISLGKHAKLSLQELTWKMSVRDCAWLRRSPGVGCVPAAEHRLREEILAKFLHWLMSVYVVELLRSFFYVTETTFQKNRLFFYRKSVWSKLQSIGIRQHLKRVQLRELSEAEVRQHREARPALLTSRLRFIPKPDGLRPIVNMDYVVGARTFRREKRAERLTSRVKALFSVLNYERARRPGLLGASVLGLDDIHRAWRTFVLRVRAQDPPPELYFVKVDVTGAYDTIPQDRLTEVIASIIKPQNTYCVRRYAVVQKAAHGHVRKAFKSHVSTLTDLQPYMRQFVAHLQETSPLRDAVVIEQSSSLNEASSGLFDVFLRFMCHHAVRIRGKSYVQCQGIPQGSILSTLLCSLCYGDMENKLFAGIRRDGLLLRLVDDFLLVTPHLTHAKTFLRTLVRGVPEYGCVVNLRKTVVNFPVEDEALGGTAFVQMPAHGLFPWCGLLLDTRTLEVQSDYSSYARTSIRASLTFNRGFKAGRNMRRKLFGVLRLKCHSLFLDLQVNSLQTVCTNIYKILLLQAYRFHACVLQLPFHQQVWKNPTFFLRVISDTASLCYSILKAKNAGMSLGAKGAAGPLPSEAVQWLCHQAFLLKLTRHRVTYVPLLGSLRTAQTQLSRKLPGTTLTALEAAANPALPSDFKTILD
Assay: Inhibition of TERT transcriptional activity in human H1299 cells assessed SEAP activity at 100 uM incubated for 24 hrs by SEAP assay
Type: cell-based
Design: scale not given: the % may be the effect or the level left
The reply should be a number in %, with the unit left off.

Recorded Activity, per entry:
Input: API: value(readout=Activity, system=Telomerase reverse transcriptase (Homo sapiens, UniProt O14746)) for record COc1cccc(N2CCN(Cc3nc4ccc5c(c4[nH]3)C(=O)c3ccccc3C5=O)CC2)c1
Output: 3

Input: API: value(readout=Activity, system=Telomerase reverse transcriptase (Homo sapiens, UniProt O14746)) for record O=C1c2ccccc2C(=O)c2c1ccc1nc(CCl)[nH]c21
Output: 3

Input: API: value(readout=Activity, system=Telomerase reverse transcriptase (Homo sapiens, UniProt O14746)) for record CCN(CC)Cc1nc2ccc3c(c2[nH]1)C(=O)c1ccccc1C3=O
Output: 0

Input: API: value(readout=Activity, system=Telomerase reverse transcriptase (Homo sapiens, UniProt O14746)) for record O=C1c2ccccc2C(=O)c2c1ccc1nc(CNCc3ccc4c(c3)OCO4)[nH]c21
Output: 1

Input: API: value(readout=Activity, system=Telomerase reverse transcriptase (Homo sapiens, UniProt O14746)) for record O=C1c2ccccc2C(=O)c2c1ccc1nc(CN3CCN(c4ncccn4)CC3)[nH]c21
Output: 19

Input: API: value(readout=Activity, system=Telomerase reverse transcriptase (Homo sapiens, UniProt O14746)) for record CCN(C)Cc1nc2ccc3c(c2[nH]1)C(=O)c1ccccc1C3=O
Output: 0

Input: API: value(readout=Activity, system=Telomerase reverse transcriptase (Homo sapiens, UniProt O14746)) for record C=CCN1CCN(Cc2nc3ccc4c(c3[nH]2)C(=O)c2ccccc2C4=O)CC1
Output: 0

Input: API: value(readout=Activity, system=Telomerase reverse transcriptase (Homo sapiens, UniProt O14746)) for record O=C1c2ccccc2C(=O)c2c1ccc1nc(CN3CCN(Cc4ccccc4)CC3)[nH]c21
Output: 0

Input: API: value(readout=Activity, system=Telomerase reverse transcriptase (Homo sapiens, UniProt O14746)) for record O=C1c2ccccc2C(=O)c2c1ccc1nc(CN3CCCCCC3)[nH]c21
Output: 4

Input: API: value(readout=Activity, system=Telomerase reverse transcriptase (Homo sapiens, UniProt O14746)) for record CN(Cc1nc2ccc3c(c2[nH]1)C(=O)c1ccccc1C3=O)CC1OCCO1
Output: 7

Further cases:
Input: API: value(readout=Activity, system=Telomerase reverse transcriptase (Homo sapiens, UniProt O14746)) for record O=C1c2ccccc2C(=O)c2c1ccc1nc(CCN3CCN(c4ncccn4)CC3)[nH]c21
Output: 0

Input: API: value(readout=Activity, system=Telomerase reverse transcriptase (Homo sapiens, UniProt O14746)) for record O=C1c2ccccc2C(=O)c2c1ccc1nc(CN3CCC(CCCC4CCNCC4)CC3)[nH]c21
Output: 3

Input: API: value(readout=Activity, system=Telomerase reverse transcriptase (Homo sapiens, UniProt O14746)) for record CN(Cc1nc2ccc3c(c2[nH]1)C(=O)c1ccccc1C3=O)Cc1c2ccccc2cc2ccccc12
Output: 12

Input: API: value(readout=Activity, system=Telomerase reverse transcriptase (Homo sapiens, UniProt O14746)) for record O=C1c2ccccc2C(=O)c2c1ccc1nc(CN3CCSC3)[nH]c21
Output: 12

Input: API: value(readout=Activity, system=Telomerase reverse transcriptase (Homo sapiens, UniProt O14746)) for record O=C1c2ccccc2C(=O)c2c1ccc1nc(CNCc3ccccc3C(F)(F)F)[nH]c21
Output: 0

Input: API: value(readout=Activity, system=Telomerase reverse transcriptase (Homo sapiens, UniProt O14746)) for record CN(C)Cc1nc2ccc3c(c2[nH]1)C(=O)c1ccccc1C3=O
Output: 0

Input: API: value(readout=Activity, system=Telomerase reverse transcriptase (Homo sapiens, UniProt O14746)) for record O=C1c2ccccc2C(=O)c2c1ccc1nc(CN(Cc3ccccn3)Cc3ccccn3)[nH]c21
Output: 0

----------
Target: Telomerase reverse transcriptase (Homo sapiens)
Assay: Inhibition of TERT transcriptional activity in human H1299 cells assessed SEAP activity at 100 uM incubated for 24 hrs by SEAP assay
Assay type: cell-based
Design: scale not given: the % may be the effect or the level left
Parameter threshold = 6%. Response is 1 when Activity meets or exceeds it, else 0.

The examples below pair each entry with its known result.
Input: Activity >= 6% for O=C1c2ccccc2C(=O)c2c1ccc1nc(CN3CCSCC3)[nH]c21 ?
Output: 0

Input: Activity >= 6% for O=C1c2ccccc2C(=O)c2c1ccc1nc(CNCc3cccc(C(F)(F)F)c3)[nH]c21 ?
Output: 0

Input: Activity >= 6% for Nc1ccc2c(c1N)C(=O)c1ccccc1C2=O ?
Output: 1

Input: Activity >= 6% for O=C1c2ccccc2C(=O)c2c1ccc1nc(CN3CCC4(CC3)OCCO4)[nH]c21 ?
Output: 1

Input: Activity >= 6% for O=C1c2ccccc2C(=O)c2c1ccc1nc(CN3CCCCC3)[nH]c21 ?
Output: 1

Further cases:
Input: Activity >= 6% for O=C1c2ccccc2C(=O)c2c1ccc1nc(CNCc3ccc(C(F)(F)F)cc3)[nH]c21 ?
Output: 0
